- Tested System: T1, OC2 DNA-binding domain (UniProt O95948 330-485)
- T1 sequence: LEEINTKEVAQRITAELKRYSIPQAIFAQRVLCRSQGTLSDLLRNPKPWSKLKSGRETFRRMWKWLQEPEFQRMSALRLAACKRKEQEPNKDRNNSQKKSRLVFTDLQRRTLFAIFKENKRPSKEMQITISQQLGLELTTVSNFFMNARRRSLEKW
- Test Method Notes: SPR
Property: Kd

The recorded Kd for entry UGT2B15 promoter 20 bp WT (dsDNA) DNA 1: TAACTTGATTGATTTTTCCT DNA 2: AGGAAAAATCAATCAAGTTA equals 1.13 nM
